assay: AUClast in ICR mouse plasma at 10 mg/kg, ip measured upto 8 hrs by LC-MS/MS analysis; format: ADME, organism-based; set-up: route intraperitoneal, dose 10 mg/kg, time <=8
recorded.endpoint: AUC(0-t) at 8 h
Please make sure the unit comes right after the number.

In: # input molecule: CCNCCc1ccc(Cl)c(-c2ccccc2OC)c1.Cl ; wanted: its AUC(0-t) at 8 h
Out: 442 ng·h/mL

###

Each item that follows carries a reported EC50.
target: 5-hydroxytryptamine receptor 7 (Homo sapiens, UniProt P34969); assay: Agonist activity at 5-HT7R (unknown origin) transfected in HEK293 cells expressing tTA-dependent luciferase reporter and beta arrestin 2-TEV fusion gene assessed as beta arrestin recruitment incubated for 22 hrs by Tango assay; assay type: functional, cell-based; conditions: read-out: EC50
Sequence (P34969 whole entry, the tested form may be a part): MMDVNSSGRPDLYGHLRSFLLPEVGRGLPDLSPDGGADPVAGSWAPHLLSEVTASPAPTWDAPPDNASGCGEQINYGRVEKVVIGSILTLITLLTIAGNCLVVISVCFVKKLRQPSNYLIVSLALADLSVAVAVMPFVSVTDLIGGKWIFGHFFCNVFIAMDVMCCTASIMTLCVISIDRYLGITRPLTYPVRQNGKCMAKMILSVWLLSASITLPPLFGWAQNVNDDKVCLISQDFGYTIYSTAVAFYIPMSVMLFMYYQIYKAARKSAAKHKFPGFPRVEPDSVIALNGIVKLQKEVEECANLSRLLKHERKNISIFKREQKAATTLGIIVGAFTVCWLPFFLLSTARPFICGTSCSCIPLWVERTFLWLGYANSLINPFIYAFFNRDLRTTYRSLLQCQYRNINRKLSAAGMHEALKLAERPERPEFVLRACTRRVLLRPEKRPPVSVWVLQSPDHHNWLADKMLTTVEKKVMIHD
Just the number please, in nM, no unit attached.

Cc1nn(C)c(C)c1-c1cccc(CCN(C)C)c1: 21

In: # input compound: COc1ccccc1-c1cc(CCN(C)C)ccc1Cl ; wanted: its EC50
Out: 56

In: # input compound: CNCc1ccc(Cl)c(-c2ccccc2OC)c1 ; wanted: its EC50
Out: 150

In: # input compound: CNCCc1ccc(Cl)c(-c2ccccc2OC)c1 ; wanted: its EC50
Out: 71

In: # input compound: COc1ccccc1-c1cc(CN(C)C)ccc1Cl ; wanted: its EC50
Out: 480

###

experiment: AUClast in ICR mouse plasma at 1 mg/kg, iv measured upto 8 hrs by LC-MS/MS analysis; type: ADME, organism-based; parameters: route intravenous, dose 1 mg/kg, time <=8
recorded.endpoint: AUC(0-t) at 8 h

In: # input compound: CCNCCc1ccc(Cl)c(-c2ccccc2OC)c1.Cl ; wanted: its AUC(0-t) at 8 h
Out: 32.9 ng·h/mL

###

Test system 5-hydroxytryptamine receptor 7 (Homo sapiens, UniProt P34969), pEC50 listed for each of the molecules.
Keep it numeric: pEC50 is minus log10 of the concentration in mol/L.

Answered cases to consult:
Cc1nn(C)c(C)c1-c1cccc(CCN(C)C)c1: 7.08
CNCCc1ccc(Cl)c(-c2ccccc2OC)c1: 7.14
CCN(CC)CCc1ccc(Cl)c(-c2ccccc2OC)c1: 5.72
COc1ccccc1-c1cc(CN(C)C)ccc1Cl: 5.96
CCCNCCc1ccc(Cl)c(-c2ccccc2OC)c1.Cl: 6.00
CCNCCc1ccc(Cl)c(-c2ccccc2OC)c1.Cl: 6.74
CCCN(CCC)CCc1ccc(Cl)c(-c2ccccc2OC)c1: 5.85
COc1ccccc1-c1cc(CCN(C)C)ccc1Cl: 7.08

Proceed to the following item.
In: API: value(readout= pEC50, system= 5-hydroxytryptamine receptor 7 (Homo sapiens, UniProt P34969), query= CNCc1ccc(Cl)c(-c2ccccc2OC)c1 )
Out: 6.34

###

biological target: 5-hydroxytryptamine receptor 7 (Homo sapiens, UniProt P34969); experiment: Displacement of [3H] D-lysergic acid diethylamide from 5-HT7R (unknown origin) transfected in HEK293 cells incubated for 1.5 hrs by microbeta scintillation counter analysis; type: cell-based; conditions: read-out: Ki
Each item that follows carries a reported pKi.
Keep it numeric: pKi is minus log10 of the concentration in mol/L.

CCCCNCCc1ccc(Cl)c(-c2ccccc2OC)c1.Cl: 7.19

In: # input compound: Cc1nn(C)c(C)c1-c1cccc(CCN(C)C)c1 ; wanted: its pKi
Out: 8.89

In: # input compound: CCNCCc1ccc(Cl)c(-c2ccccc2OC)c1.Cl ; wanted: its pKi
Out: 8.55

In: # input compound: CCCCNCc1ccc(Cl)c(-c2ccccc2OC)c1 ; wanted: its pKi
Out: 7.28

###

target: 5-hydroxytryptamine receptor 7 (Homo sapiens, UniProt P34969); experiment: Agonist activity at 5-HT7R (unknown origin) transfected in HEK293 cells expressing tTA-dependent luciferase reporter and beta arrestin 2-TEV fusion gene assessed as beta arrestin recruitment incubated for 22 hrs by Tango assay; format: functional, cell-based; settings: hek293
recorded.endpoint: EC50

Answered cases to consult:
CCCN(CCC)CCc1ccc(Cl)c(-c2ccccc2OC)c1: Not Active
CCNCCc1ccc(Cl)c(-c2ccccc2OC)c1.Cl: Not Active
CCCNCCc1ccc(Cl)c(-c2ccccc2OC)c1.Cl: Not Active
CCN(CC)Cc1ccc(Cl)c(-c2ccccc2OC)c1: Not Active
CCCCNCc1ccc(Cl)c(-c2ccccc2OC)c1: Not Active
CCCCNCCc1ccc(Cl)c(-c2ccccc2OC)c1.Cl: Not Active

In: # input molecule: CCN(CC)CCc1ccc(Cl)c(-c2ccccc2OC)c1 ; wanted: its EC50
Out: Not Active

In: # input molecule: CCCN(CCC)Cc1ccc(Cl)c(-c2ccccc2OC)c1 ; wanted: its EC50
Out: Not Active

###

assay: Half life in ICR mouse plasma at 1 mg/kg, iv measured upto 8 hrs by LC-MS/MS; type: ADME, organism-based
recorded.endpoint: half-life (min)
Just the number please, in min, no unit attached.

In: # input compound: CCNCCc1ccc(Cl)c(-c2ccccc2OC)c1.Cl ; wanted: its half-life
Out: 30

###

Each item that follows carries a reported Ki.
molecular target: 5-hydroxytryptamine receptor 1D (Homo sapiens)
Sequence (P28221 whole entry): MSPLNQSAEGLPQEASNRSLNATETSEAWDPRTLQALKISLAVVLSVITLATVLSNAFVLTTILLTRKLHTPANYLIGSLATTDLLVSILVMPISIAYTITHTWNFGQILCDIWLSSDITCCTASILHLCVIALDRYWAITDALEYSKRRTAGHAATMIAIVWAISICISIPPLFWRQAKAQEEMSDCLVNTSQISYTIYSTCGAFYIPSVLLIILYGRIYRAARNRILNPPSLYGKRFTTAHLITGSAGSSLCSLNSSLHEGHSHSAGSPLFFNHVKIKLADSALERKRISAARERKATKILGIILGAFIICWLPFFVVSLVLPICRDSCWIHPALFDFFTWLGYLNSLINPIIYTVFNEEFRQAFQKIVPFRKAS
Just the number please, in nM, no unit attached.

CCCCNCCc1ccc(Cl)c(-c2ccccc2OC)c1.Cl: 110
CCCNCc1ccc(Cl)c(-c2ccccc2OC)c1: 220

In: # input compound: CCNCCc1ccc(Cl)c(-c2ccccc2OC)c1.Cl ; wanted: its Ki
Out: 5.3

###

Test system UniProtKB P28221, pKi listed for each of the compounds.
Keep it numeric: pKi is minus log10 of the concentration in mol/L.

COc1ccccc1-c1cc(CN(C)C)ccc1Cl: 5.89
CNCCc1ccc(Cl)c(-c2ccccc2OC)c1: 8.48
COc1ccccc1-c1cc(CCN(C)C)ccc1Cl: 7.07
CCCN(CCC)CCc1ccc(Cl)c(-c2ccccc2OC)c1: 7.42
CCCNCCc1ccc(Cl)c(-c2ccccc2OC)c1.Cl: 7.39

In: API: value(readout= pKi, system= UniProtKB P28221, query= CCN(CC)CCc1ccc(Cl)c(-c2ccccc2OC)c1 )
Out: 8.08

###

Test system 5-hydroxytryptamine receptor 1B (Homo sapiens), pKi listed for each of the molecules.
Keep it numeric: pKi is minus log10 of the concentration in mol/L.

CCN(CC)CCc1ccc(Cl)c(-c2ccccc2OC)c1: 6.80
CCCCNCCc1ccc(Cl)c(-c2ccccc2OC)c1.Cl: 6.55
CNCc1ccc(Cl)c(-c2ccccc2OC)c1: 5.92
COc1ccccc1-c1cc(CN(C)C)ccc1Cl: 6.08
COc1ccccc1-c1cc(CCN(C)C)ccc1Cl: 7.13
CCCN(CCC)CCc1ccc(Cl)c(-c2ccccc2OC)c1: 6.80
CCNCCc1ccc(Cl)c(-c2ccccc2OC)c1.Cl: 6.24
CNCCc1ccc(Cl)c(-c2ccccc2OC)c1: 7.08

In: # input molecule: CCCNCCc1ccc(Cl)c(-c2ccccc2OC)c1.Cl ; wanted: its pKi
Out: 6.60

In: # input molecule: COc1ccccc1-c1cc(C2CCN(C)C2)ccc1Cl (configuration not stated) ; wanted: its pKi
Out: 7.92

###

Test system 5-hydroxytryptamine receptor 1E (Homo sapiens, UniProt P28566), Ki listed for each of the molecules.
Just the number please, in µM, no unit attached.

Answered cases to consult:
COc1ccccc1-c1cc(CN(C)C)ccc1Cl: 4.1
CNCCc1ccc(Cl)c(-c2ccccc2OC)c1: 0.18
COc1ccccc1-c1cc(C2CCN(C)C2)ccc1Cl (stereo not drawn): 4.1
CCNCCc1ccc(Cl)c(-c2ccccc2OC)c1.Cl: 2.6
CNCc1ccc(Cl)c(-c2ccccc2OC)c1: 2.4

In: API: value(readout= Ki, system= 5-hydroxytryptamine receptor 1E (Homo sapiens, UniProt P28566), query= CCN(CC)CCc1ccc(Cl)c(-c2ccccc2OC)c1 )
Out: 6.7

In: API: value(readout= Ki, system= 5-hydroxytryptamine receptor 1E (Homo sapiens, UniProt P28566), query= COc1ccccc1-c1cc(CCN(C)C)ccc1Cl )
Out: 2.2

###

experiment: Volume of distribution in steady state in ICR mouse plasma at 1 mg/kg, iv measured upto 8 hrs by LC-MS/MS analysis; format: ADME, organism-based; settings: read-out: Vdss
recorded.endpoint: Vd (L/kg)
Just the number please, in L/kg, no unit attached.

In: # input molecule: CCNCCc1ccc(Cl)c(-c2ccccc2OC)c1.Cl ; wanted: its Vd
Out: 19.5

###

Biological target: 5-hydroxytryptamine receptor 2C (Homo sapiens)
Sequence (P28335 whole entry): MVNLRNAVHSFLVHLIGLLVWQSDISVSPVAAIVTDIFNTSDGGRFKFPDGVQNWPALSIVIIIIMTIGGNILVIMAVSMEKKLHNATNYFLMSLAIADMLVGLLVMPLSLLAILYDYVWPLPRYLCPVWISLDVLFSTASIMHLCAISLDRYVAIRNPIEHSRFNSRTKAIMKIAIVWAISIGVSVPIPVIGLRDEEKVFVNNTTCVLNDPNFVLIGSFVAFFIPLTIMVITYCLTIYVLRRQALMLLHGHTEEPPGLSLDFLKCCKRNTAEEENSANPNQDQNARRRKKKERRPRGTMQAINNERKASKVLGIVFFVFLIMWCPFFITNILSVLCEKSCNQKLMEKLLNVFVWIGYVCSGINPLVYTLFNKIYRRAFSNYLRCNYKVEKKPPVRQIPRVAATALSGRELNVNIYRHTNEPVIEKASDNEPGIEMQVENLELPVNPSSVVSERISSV
recorded.endpoint: Ki

COc1ccccc1-c1cc(C2CCNC2)ccc1Cl (stereo not given): > 10 µM
CCNCc1ccc(Cl)c(-c2ccccc2OC)c1: 0.045 µM

In: # input compound: CCCN(CCC)Cc1ccc(Cl)c(-c2ccccc2OC)c1 ; wanted: its Ki
Out: 2.6 µM

In: # input compound: CCCCNCCc1ccc(Cl)c(-c2ccccc2OC)c1.Cl ; wanted: its Ki
Out: > 10 µM
